The values you see were collected from the supplement of paper PMC9732359.

experiment: protein stability index of a GFP-peptide fusion (yeast GPS) (PSI 1-4); higher = more stable; sorted into four equal gates, so the index is relative within each strain; settings: doa10∆
Reported protein stability index values for a set of sequences

sequence.string | protein stability index
MSEQQWREQLRNRDIAL [ROX3] | 2.98
KDEPVQNDILQESFINT [FAS2] | 2.94
MKYAVSKTSENKVSNTV [SIR2] | 2.99
IQQVVEYADNDEDKFKK [PRP28] | 3.06
NYTQNIDNLESYAGIST [SIR2] | 2.92
SASLHLNYGVYLNGTLI [RET1] | 2.65
KSKREEEAKSVLPAATK [ARP9] | 1.1
SGKSNFFAAIRFVLSDD [SMC3] | 3.02
EHIIRDVHNGYILRYLH [COB] | 2.35
LNRQNDITDGKDYHTLA [RPS18A] | 3.13
SNSALFRAVGEGNAQLV [FAS1] | 2.15
ATSSTNANAGLFNKPPS [YOR098C/NUP1] | 2.86
GKIDEAADILCELQVET [RPN5] | 3.06
DGKGAVYSFDPVGSYER [PRE7] | 3.31
LRLKPGRKYTTLGKLST [RPL16B] | 2.69
LDPINLPLDSQDDEYVK [PRP8] | 2.83
SNNQVIKMQRQFSQLND [MED6] | 3.01
VAARGLDIPNVSLVVNF [PRP28] | 2
FAVALKNEPDYSKAKYP [CDC53] | 2.88
QAQLRIDDKTQNDELTM [DIS3] | 2.42
LHYCVSCAIHARIVRVR [RPS26A] | 1.17
SNGEVLEVGKNNFCALY [RPN14] | 2.34
QGGNNELGTAVGKLFRV [RPL30] | 2.5
PSTRCKLKLLRMERIKD [RPT2] | 1.6
FSKQCLISNAIYGKKTM [ECM29] | 1.15
IFFDEIDAVGGARFDDG [RPT1] | 3.01
FSTNVKDEIVLSGNSVE [RPL9A] | 2.03
GIKLALDPNLITLALSS [SRB4] | 2.21
VDSNLPDDEKFTDENTI [RPC40] | 2.35
SSTGNANTSNNLFGATA [YJL041W/NSP1] | 3.44
TSLLNKVLKSGSGVDSS [RRP42] | 2.87
TVEGISKLLREHGYQSR [RPB2] | 3.4
TNEEVRNMAEEFEYDDE [CYT1] | 2.92
RHLRRTGKVSEFISIYS [RET1] | 1.48
DHEFVLISLIMTTWRKL [YMR129W/POM152] | 1.3
MHRPVHFLQFSELAGDE [PRP8] | 3.23
LVALSNEPAARLGSEAD [FAS2] | 3.44
KISDDELERILKELSNL [RPB4] | 3.16
RSNGSVASLSKRNKLLT [YJL039C/NUP192] | 1.73
GSGVDSSKLQLTKKYSF [RRP42] | 2.67
PRGLNSARKLRVHRRNN [RPS23A] | 2.39
LNVPVFQIVIEPLAIAL [ARP7] | 1.65
NNLSNQLETLTGSIRHR [CSE2] | 3.06
EPEFHALSQSSLLKTKL [RRI1] | 2.15
QETASPLSQDELISLRK [YIL149C/MLP2] | 2.42
NISISTSELGNDDFSEV [BRR2] | 2.94
LGNTSSVANTPSEIPDA [SWI3] | 2.95
ELLEYSDDIAENDNLDN [YCG1] | 3.06

* * *

test: protein stability index of a GFP-peptide fusion (yeast GPS) (PSI 1-4); higher = more stable; sorted into four equal gates, so the index is relative within each strain; conditions: doa10∆
endpoint.name: protein stability index

sequence.string | observed.measurement
ELLKLLNDEYNYPQLTE [YCS4] | 3.09
NGTVNNNSALSNVNSDI [RPT3] | 2.91
SEETQFKYVEDRFPLKL [ITC1] | 3.47
PPQAGDRSLADDYDYVM [RPB8] | 3.23
EPNLAAQQDSTNVRLYS [ECM29] | 2.88
DQCKKQRRCLHCGALNG [RPO31] | 2.6
KIYNFGELLHHPIMETI [RPN9] | 2.58
FSDKVNALWILVDLVSH [ITC1] | 1.4
LNIRIQTYGETTAVDAL [RPC19] | 2.02
ESTAGSASTSATGISGS [ECM29] | 3.31
ASHNVRRIPKRMRNRAL [POP1] | 2.11
KSLPLLITVMEKSPDPT [YCS4] | 1.91
NEKRYATASAIAATAVA [RPL4A] | 2.29
SLSIEENIPVALCKNRK [POP1] | 2.76
KTLVYLEKCEAEFKKRK [YCS4] | 3.42
QRETSGMIVISMENYHL [SRB8] | 2.16
FEPASRLQGIKLLDNIQ [COR1] | 2.87
NIVKLCFVHRYKDVSDL [IRR1] | 2.68
PYNLNLFPNELYNVMGI [RPC31] | 2.12

* * *

Reported protein stability index values for a set of sequences
test: protein stability index of a GFP-peptide fusion (yeast GPS) (PSI 1-4); higher = more stable; sorted into four equal gates, so the index is relative within each strain; settings: doa10∆

sequence.string | protein stability index
AKILSQAPTELELQVAQ [RPS7A] | 2.48
LGKCSRITDASLFQLSK [GRR1] | 3.04
GIDPTRIYTNSFIDIME [RPO21] | 2.64
IGIPVNKASLAQYEVLA [QCR2] | 2.52
KILNLEKPLILADYIVE [NUT1] | 1.58
SKALNSILESSMFLRID [RGR1] | 2.42
TLEAKIGGLLSKVREEV [RPO31] | 3
DSEIEISSEKLLTLTNA [RPP1A] | 2.99

* * *

Reported protein stability index values for a set of sequences
assay: protein stability index of a GFP-peptide fusion (yeast GPS) (PSI 1-4); higher = more stable; sorted into four equal gates, so the index is relative within each strain; settings: pdr5∆

sequence.string | protein stability index
LLVPLALLTKRLYPHWD [CSN12] | 2.01
SKLLYDDVTCDKLSVSE [SIN4] | 3.02
GSGVDSSKLQLTKKYSF [RRP42] | 2.8
DSTIGNSKVDMKYDIFA [IRR1] | 2.78
SIEFAKREKRVFLKHSL [RPN6] | 3.4
YIEASGREGIWSKTIKA [RPC34] | 2.07
LATGPNLTSEIEDLRAD [YOR098C/NUP1] | 3.25
QQLRTWKRQISYFLKLL [SRB8] | 2.18
GPSSVHNAKNGTLDKNS [SNF2] | 3.03
KRPNNKTLEKLESTIAE [IRR1] | 3.35
GFGLVYNSVAEAKKFEP [RPS24A] | 3.47
NAVLGLGDMAVCFNNLV [YCS4] | 3.32
GLFDSFTNGVLAVTNLL [YML031W/NDC1] | 2.95
KVEIPLPNEAGRLEIFK [RPT4] | 3.09
LPLLYNFNPDNGFAPIS [FAS1] | 2.63
KDKGVYVVTSDEHPKTL [SIR2] | 3.24
GPIKTPVGACATSVESV [FAS2] | 2.13
DDPSKVRLLCRSDGMGN [YLR335W/NUP2] | 3.66
RILKLGTQLATLKNRGL [YGR119C/NUP57] | 2.57
EPKKPSFTFASSKTSQP [YOR098C/NUP1] | 2.88
DENKDDELVKLLLDNGF [SRP68] | 3.4
KDDRFVPVRKFKGNNGV [RPN2] | 2.77
PRVSNQSNEDTFLPSYM [RRI2] | 3.05
INYAFSMDEEFKNMDCI [SIR3] | 3.22
DVNTNANANANATANAT [SNF11] | 3.27
NECQRLQNIVMDCTKEE [YIL149C/MLP2] | 3.47
RNAALRAKAEAAEFRYK [SCL1] | 3.28
LGVKSRLLEKSELPDIY [SNF2] | 3.42
MAKRVADAQIQRETYDS [YLR335W/NUP2] | 2.7
IIPSRMGEAQTGANFDD [REC8] | 2.16
LKKLEKEYELLTLQEDY [RPT3] | 2.31
SLNFIPITASTSRVFAK [YML103C/NUP188] | 1.58
IAQGIDLVRDIDIDKLI [SRP72] | 1.23
VGKDTPFTIYDGEAVAK [PRE5] | 3
AIQFVKENELLFGEKSI [YCS4] | 2.09
VHDIFSKIFNESFPDDI [CDC53] | 2.91
SYYSREQDALFITRLAQ [RPN1] | 1.85
DAKSTPLRLRLYDNFVS [RPN9] | 3.22
EWHSSLTLKEAELLVLK [PUP2] | 2.47
QGSVTVGLRSNTHAVLV [PRE5] | 1.43
IRVTNSFALPFEEDEKN [RPN8] | 2.48
QKSPKIRDPLTQTGLLQ [RPC82] | 1.74
MTAMRLMLKKLKNSIMS [YML031W/NDC1] | 1.99
VDLEEVMDTIQEQITLY [SSN8] | 3.18
PFLNETKPGVYYVPYSK [RPC82] | 2.97
FGRKKRKGGPATAEKLP [RPT2] | 3.28
EAKERYTDRDQDEVNKG [NNF1] | 3.28
QKDQDGRIPLHWSVSFQ [NAS6] | 3.33
VQYLSGAHGNSDPVCLF [POP3] | 2.83
LETLEHNGAPHHAIEEA [RPO21] | 3.01
IKYEFNGIPLKSKERSS [YMR129W/POM152] | 1.24
ESMSYLPDPILKNFLSY [MCD1] | 2.79
LLAREVLRLRGALVDRT [RPS0A] | 2.15
